Test system: P. falciparum
Experiment: P. falciparum in vitro assay (D6, TM91C235, W2, C2B strains)
Assay type: cell-based
Conditions: Plasmodium falciparum, C2B strain, multi-drug resistant, pronounced resistance to atovaquone
MEASURE NAME: pIC50
FYI, pIC50 means -log10 of a concentration in mol per litre.

Incoming: Endpoint output: pIC50 of Cc1[nH]c2ccccc2c(=O)c1-c1ccc(Oc2ccc(OC(F)(F)F)cc2)cc1 . Value?
Outgoing: 6.89
